This listing pairs compounds with measured inhibition at 10 µM.
tested on: alpha-smooth muscle actin (α-SMA); test: Inhibition of TGF-β induced expression of alpha-smooth muscle actin (α-SMA) in CFSC cells, western blot; type: cell-based; conditions: compound at 10 μM, TGF-β (10 ng/mL), 24 hours, decrease in band intensity vs TGF-β only

# compound, inhibition at 10 µM
measured = [
    ("CC1=C(CC(=O)O)c2cc(F)ccc2/C1=C\\c1ccc(Oc2ccc(C)c(F)c2)cc1 [Compound D4]", "< 50%"),
    ("CC1=C(CC(=O)O)c2cc(F)cc(F)c2/C1=C\\c1cccc(Oc2ccccc2)c1 [Compound D20]", "> 90%"),
    ("CC1=C(CC(=O)O)c2cc(F)ccc2/C1=C\\c1ccc(Oc2ccc(C(C)C)cc2)cc1 [Compound A5]", "> 90%"),
    ("CC1=C(CCc2nnn[nH]2)c2ccccc2/C1=C\\c1ccc(Oc2ccc(C(F)(F)F)cc2)cc1 [Compound A45]", "> 90%"),
]
